experiment: modulators of CD8 T cell-vesicle binding, confirmation, cherry-picked primary hits, two concentrations (AID 2810); conditions: 2C CD8+ T cell-vesicle binding, flow cytometry; CD8+/vesicle+ events; at 7.7 µM;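 further: lower values mean blocking of vesicle binding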
Hit rate of the full screen: of about 1,200 compounds, about 65 (5%) were called active. The list comes from a sample in which actives are over-represented; it also holds close analogues and randomly drawn compounds.
Property: double positive events; scope: individual compounds
value-type: double positive events

INSERT INTO measurements (compound, value_type, value_observed) VALUES
  ('CSc1ccccc1NC(=O)CN(C)C(=O)c1ccc2c(c1)OCCO2', 'double positive events', '45.7%'),
  ('Cc1sc(NC(=O)CN2CCOCC2)c(C#N)c1C', 'double positive events', '10.4%'),
  ('COc1ccc(S(=O)(=O)N(C)C[C@H]2Oc3ccc(NC(=O)C4CC4)cc3C(=O)N([C@H](C)CO)C[C@@H]2C)cc1', 'double positive events', '5.6%'),
  ('Nc1ccccc1C(=O)N/N=C1\C2CN3CCN(C2)CC1(c1ccccc1)C3', 'double positive events', '20%'),
  ('O=C(NCC(=O)N1CCN(C(=O)c2ccccc2)CC1)c1ccccc1', 'double positive events', '13.6%'),
  ('Cc1ccsc1C(=O)OCC(=O)N1CCN(c2ccccc2)CC1', 'double positive events', '17.9%'),
  ('Cc1cccc(NS(=O)(=O)c2ccc(Oc3ccccc3)cc2)n1', 'double positive events', '19.3%'),
  ('COc1ccc(Br)cc1CN(C)C(=O)c1ccc2c(c1)NC(=O)C(C)S2 (centres undefined)', 'double positive events', '38.9%'),
  ('Cc1ccc(C)c(OC(=O)c2cncc(Br)c2)c1', 'double positive events', '18.1%'),
  ('Cc1ccc(NC(=O)C2c3ccccc3Oc3ccccc32)c(C)c1', 'double positive events', '12.5%'),
  ('CN1CCN(c2oc(-c3ccc([N+](=O)[O-])cc3)nc2C#N)CC1', 'double positive events', '8.5%'),
  ('COc1ccc(NC(=O)COC(=O)c2cc(Cl)ccc2O)cc1S(=O)(=O)N1CCCCC1', 'double positive events', '27%'),
  ('COc1ccc([C@H]2CC(=O)C=C(/C=C/c3ccccc3)C2)cc1', 'double positive events', '19.1%'),
  ('Cc1ccc2nc(-c3cccnc3)c(NC3CCCC3)n2c1', 'double positive events', '16.9%'),
  ('CCN(Cc1ccccc1)C(=O)c1ccc(C)c(S(=O)(=O)N2CCCCC2)c1', 'double positive events', '11.9%'),
  ('CS(=O)(=O)NCc1ccccc1Br', 'double positive events', '31%'),
  ('Cc1ccc(C(=O)OCC(=O)NC2CCCCC2)o1', 'double positive events', '35.5%'),
  ('O=C(c1ccccc1Cl)N1CCCC(c2nc3c(nnn3Cc3ccccc3)c(=O)[nH]2)C1 (centres undefined)', 'double positive events', '9.2%'),
  ('Cc1ccc(O)c(CCc2ccccc2)n1', 'double positive events', '15.8%'),
  ('CC(NS(=O)(=O)c1ccc(Cl)c(Cl)c1)C(=O)OCC(=O)N1CCCCCC1 (centres undefined)', 'double positive events', '27.5%'),
  ('O=C(Nc1nc2ccccc2n1CCN1CCOCC1)c1ccc(Cn2cc([N+](=O)[O-])cn2)o1', 'double positive events', '23.6%'),
  ('CN(CCCC(=O)N1CCN(c2ncccn2)CC1)S(=O)(=O)c1ccc(F)cc1', 'double positive events', '7%'),
  ('CSCCC(NC(=O)c1ccc(=O)n(C)n1)c1nc2ccccc2[nH]1 (centres undefined)', 'double positive events', '14.9%'),
  ('Cc1cc(F)ccc1S(=O)(=O)N1CCCOC1CNC(=O)C(=O)NC1CCCC1 (centres undefined)', 'double positive events', '11.7%'),
  ('CC(Sc1nc2ccccc2s1)C(=O)Nc1ccc2c(c1)OCO2 (centres undefined)', 'double positive events', '9%'),
  ('COc1ccc(F)c(CN2CCC(n3nccc3NC(=O)C3CCOC3)CC2)c1 (centres undefined)', 'double positive events', '29.1%'),
  ('COc1ccc(NC(=O)Nc2ccc(O)c3ccccc23)cc1', 'double positive events', '5.3%'),
  ('O=C1c2cccc3c2[C@H](CCC3)CN1[C@@H]1CN2CCC1CC2', 'double positive events', '19.9%'),
  ('Cc1ccc(S(=O)(=O)Nc2c3ccccc3nc(=O)n2-c2ccccc2)cc1', 'double positive events', '21.4%'),
  ('O=C(Nc1nnc(C2=COCCO2)o1)C1CCCCC1', 'double positive events', '47.3%'),
  ('O=C1CC(c2nc3ccccc3[nH]2)CN1Cc1ccccc1 (centres undefined)', 'double positive events', '17.2%'),
  ('COc1cc2c(-c3cc(F)cc(F)c3)c(-c3ccsc3)oc(=O)c2cc1OC', 'double positive events', '37.8%'),
  ('O=C(NCCO)/C(=C\c1ccc(Br)cc1)NC(=O)c1cccs1', 'double positive events', '6.9%'),
  ('CCOCC(=O)Nc1ccc(S(=O)(=O)N2CCC(c3nc4ccccc4[nH]3)CC2)cc1', 'double positive events', '7.3%'),
  ('O=C(CC1=NCCNC(c2ccccc2)C1)c1ccccc1O (centres undefined)', 'double positive events', '6.2%'),
  ('Nc1nc(SCCO)[nH]c(=O)c1NC(=O)c1ccc(Br)o1', 'double positive events', '11.9%'),
  ('COc1ccc(CCCC(=O)NC(C)c2ccccc2)cc1 (centres undefined)', 'double positive events', '12.2%'),
  ('CN(C)S(=O)(=O)c1ccc(NC(=O)c2ccc([N+](=O)[O-])cc2)cc1', 'double positive events', '25.4%'),
  ('CCc1ccccc1NC(=O)NCc1ccc2c(c1)OCO2', 'double positive events', '17.2%'),
  ('CCN(CC)CCNC(=O)CCCNC(=O)Cn1cnc2sc(C)c(C)c2c1=O', 'double positive events', '39.3%'),
  ('Cc1c(NC(=S)NC(=O)CCc2ccccc2)c(=O)n(-c2ccccc2)n1C', 'double positive events', '21.8%'),
  ('Cc1c(NS(=O)(=O)CC23CCC(CC2=O)C3(C)C)c(=O)n(-c2ccccc2)n1C (centres undefined)', 'double positive events', '14.2%'),
  ('O=C(NCCC1=CCCCC1)C(=O)NCC(c1ccco1)N1CCN(c2ccccc2F)CC1 (centres undefined)', 'double positive events', '36.4%'),
  ('O=C(Nc1ccccc1C(=O)NCc1cccnc1)c1ccccc1Cl', 'double positive events', '25.8%');

Numbers sourced from PubChem BioAssay AID2810.
